Form field: inhibition (one value per entry).
- tested-on: Nuclear factor NF-kappa-B complex (Homo sapiens) (UniProt Q00653+P19838+Q04206)
- Sequence (P19838 whole entry, looked up): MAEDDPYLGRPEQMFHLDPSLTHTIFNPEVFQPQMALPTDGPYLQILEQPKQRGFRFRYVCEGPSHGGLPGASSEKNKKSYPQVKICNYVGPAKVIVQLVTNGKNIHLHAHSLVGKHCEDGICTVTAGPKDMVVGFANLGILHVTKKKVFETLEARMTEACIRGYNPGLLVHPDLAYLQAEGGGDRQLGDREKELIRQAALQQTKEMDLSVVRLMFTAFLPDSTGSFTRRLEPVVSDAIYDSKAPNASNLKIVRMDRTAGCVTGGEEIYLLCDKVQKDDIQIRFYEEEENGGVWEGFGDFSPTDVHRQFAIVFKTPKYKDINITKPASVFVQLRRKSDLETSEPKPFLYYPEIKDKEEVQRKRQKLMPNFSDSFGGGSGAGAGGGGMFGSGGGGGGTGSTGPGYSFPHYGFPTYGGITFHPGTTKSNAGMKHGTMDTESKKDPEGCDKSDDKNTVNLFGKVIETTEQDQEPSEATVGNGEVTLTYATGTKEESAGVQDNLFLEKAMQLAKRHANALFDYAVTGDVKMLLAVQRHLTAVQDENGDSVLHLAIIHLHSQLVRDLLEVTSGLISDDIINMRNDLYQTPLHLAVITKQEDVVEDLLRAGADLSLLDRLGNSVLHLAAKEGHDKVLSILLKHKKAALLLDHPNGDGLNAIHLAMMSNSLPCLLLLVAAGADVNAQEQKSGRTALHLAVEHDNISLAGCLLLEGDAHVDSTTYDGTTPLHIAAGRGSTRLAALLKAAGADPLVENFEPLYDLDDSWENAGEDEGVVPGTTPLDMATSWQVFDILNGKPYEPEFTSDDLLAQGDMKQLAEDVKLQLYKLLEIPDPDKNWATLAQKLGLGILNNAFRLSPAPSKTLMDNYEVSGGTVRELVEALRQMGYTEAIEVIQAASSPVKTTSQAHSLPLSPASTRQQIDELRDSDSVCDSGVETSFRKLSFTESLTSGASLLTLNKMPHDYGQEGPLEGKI
- Sequence (Q00653 whole entry, looked up): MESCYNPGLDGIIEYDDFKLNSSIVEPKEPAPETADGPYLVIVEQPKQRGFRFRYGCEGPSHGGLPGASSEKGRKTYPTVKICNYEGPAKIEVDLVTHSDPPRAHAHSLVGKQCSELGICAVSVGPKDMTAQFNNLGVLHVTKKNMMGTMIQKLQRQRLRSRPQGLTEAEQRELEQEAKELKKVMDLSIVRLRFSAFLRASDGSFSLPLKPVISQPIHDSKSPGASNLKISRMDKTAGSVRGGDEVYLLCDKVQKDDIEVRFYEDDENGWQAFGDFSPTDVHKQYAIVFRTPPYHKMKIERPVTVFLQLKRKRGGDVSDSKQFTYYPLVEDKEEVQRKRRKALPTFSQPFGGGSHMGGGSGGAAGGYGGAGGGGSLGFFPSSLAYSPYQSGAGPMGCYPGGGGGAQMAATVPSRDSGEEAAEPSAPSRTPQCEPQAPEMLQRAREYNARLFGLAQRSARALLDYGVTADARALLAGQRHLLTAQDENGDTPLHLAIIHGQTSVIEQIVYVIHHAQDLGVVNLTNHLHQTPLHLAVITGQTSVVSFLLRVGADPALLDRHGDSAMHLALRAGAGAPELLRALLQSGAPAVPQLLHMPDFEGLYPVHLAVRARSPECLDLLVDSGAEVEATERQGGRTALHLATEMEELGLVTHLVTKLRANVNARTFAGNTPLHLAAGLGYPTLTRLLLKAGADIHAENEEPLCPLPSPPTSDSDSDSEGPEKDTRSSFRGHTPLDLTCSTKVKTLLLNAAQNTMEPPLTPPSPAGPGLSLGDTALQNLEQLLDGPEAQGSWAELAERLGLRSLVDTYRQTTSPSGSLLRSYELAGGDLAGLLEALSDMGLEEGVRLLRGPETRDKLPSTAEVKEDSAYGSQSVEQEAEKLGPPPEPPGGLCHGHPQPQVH
- Sequence (Q04206 whole entry, looked up): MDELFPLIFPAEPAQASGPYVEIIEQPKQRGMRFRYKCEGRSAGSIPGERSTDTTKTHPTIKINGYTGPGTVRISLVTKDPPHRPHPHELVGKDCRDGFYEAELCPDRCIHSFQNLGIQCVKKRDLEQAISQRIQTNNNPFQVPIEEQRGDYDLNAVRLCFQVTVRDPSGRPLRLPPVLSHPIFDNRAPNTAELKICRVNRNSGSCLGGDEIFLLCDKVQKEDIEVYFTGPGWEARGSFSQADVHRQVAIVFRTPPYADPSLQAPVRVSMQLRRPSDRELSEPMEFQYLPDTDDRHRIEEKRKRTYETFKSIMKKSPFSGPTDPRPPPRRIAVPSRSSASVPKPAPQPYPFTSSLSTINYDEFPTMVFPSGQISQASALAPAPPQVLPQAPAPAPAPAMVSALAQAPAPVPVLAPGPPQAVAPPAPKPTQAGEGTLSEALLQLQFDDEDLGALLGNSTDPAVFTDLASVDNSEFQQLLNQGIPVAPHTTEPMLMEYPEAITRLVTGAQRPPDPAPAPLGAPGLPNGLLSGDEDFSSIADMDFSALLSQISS
- method-description: Inhibition of NF-kappaB in human IM9 cells assessed as inhibition of nuclear translocation at 10 uM after 30 mins by NF-kappaB (p65) transcription factor assay
- Type: cell-based
- condition-parameters: IM-9
experimental-readout: inhibition

INSERT INTO measurements (compound, tested_on, observed_value) VALUES
  ('C=C[C@H](OC(C)=O)c1ccc(OC(C)=O)cc1 [1''-ACETOXYCHAVICOL ACETATE]', 'Nuclear factor NF-kappa-B complex (Homo sapiens) (UniProt Q00653+P19838+Q04206)', '70%'),
  ('CC(=O)Oc1ccc(C(OC(C)=O)c2ccccc2)cc1 (centres undefined)', 'Nuclear factor NF-kappa-B complex (Homo sapiens) (UniProt Q00653+P19838+Q04206)', '61%'),
  ('CC(=O)Oc1ccc(C(OC(C)=O)c2c3ccccc3cc3ccccc23)cc1 (centres undefined)', 'Nuclear factor NF-kappa-B complex (Homo sapiens) (UniProt Q00653+P19838+Q04206)', '85%');
